# protocol.description: in vitro
# recorded.conditions: rat, gh3-tre-luc cells, AC50 (uM) modified / 1000
metric: CC50 at 24 h

compound="CC1(C)[C@@H]2CC[C@@]1(C)[C@H](O)C2 [Isoborneol]" reading="> 90 µM"
compound="CC(=O)OCC(COC(C)=O)OC(C)=O [Triacetin]" reading="> 90 µM"
compound="O=C1OC(=O)c2cc(-c3ccc4c(c3)C(=O)OC4=O)ccc21 [5,5'-Bi-2-benzofuran-1,1',3,3'-tetrone]" reading="> 90 µM"
compound="CO[C@H]1[C@@H](O)C[C@H](O[C@H]2[C@@H](O)C[C@H](O[C@H]3[C@@H](O)C[C@H](O[C@H]4CC[C@@]5(C)[C@H](CC[C@@H]6[C@@H]5C[C@@H](O)[C@]5(C)[C@@H](C7=CC(=O)OC7)CC[C@]65O)C4)O[C@@H]3C)O[C@@H]2C)O[C@@H]1C [Methyldigoxin]" reading="> 50 µM"
compound="CCc1cccc2c3c([nH]c12)C(CC)(CC(=O)O)OCC3 (centres unmarked) [Etodolac]" reading="> 90 µM"
compound="CCCCC1C(=O)N(c2ccccc2)N(c2ccccc2)C1=O [Phenylbutazone]" reading="> 90 µM"
compound="CCCCCCO [1-Hexanol]" reading="> 90 µM"
compound="CO[C@@]1(NC(=O)C2SC(=C(C(N)=O)C(=O)O)S2)C(=O)N2C(C(=O)O)=C(CSc3nnnn3C)CS[C@@H]21 (some centres unmarked) [Cefotetan]" reading="> 20 µM"
